Test system: SNB-19 CNS
Test: NCI tumour cell line growth inhibition, 48 h
READOUT TYPE: TGI

Consider the following illustrative entries.
COc1ccc([C@H]2c3cc4c(cc3OC(O)(CO)[C@H]2C(=O)O)OCO4)c(OC)c1 (some centres not stated) (tested in a mixture with another compound)
> 100 µM
CNc1ccc([N+](=O)[O-])c2c(NCCCN(C)C)ccnc12
> 100 µM
CCOC(OCC)C(CC)[Se]c1ccccc1 (configuration not stated)
> 100 µM

Record CC(=O)OCC1OC(n2c(N)c(C#N)c(-c3cccc(Cl)c3)c(C#N)c2=S)C(OC(C)=O)C(OC(C)=O)C1OC(C)=O (configuration not stated) . Reported TGI: > 100 µM

Source of measurements: PubChem BioAssay (NCI)
